propertyName: melting point

{"compound": "CC(=O)N1CC(Cc2ccccc2)OC1=O (configuration not stated)", "reading": "90 °C"}
{"compound": "NS(=O)(=O)c1ccccc1Cc1nnc(S)s1", "reading": "173 to 197 °C"}
{"compound": "N#CC(CO)Cc1cc(O)c(O)c([N+](=O)[O-])c1 (configuration not stated)", "reading": "149 to 152 °C"}
{"compound": "NC1=C(NC=O)C(=O)N2CCN=C2N1Cc1ccccc1", "reading": "248 to 250 °C"}

Required: melting point, one value per compound below.
1. CCCCc1ncc(CC(=O)N[C@@H](Cc2ccccc2)C(=O)O)n1Cc1ccccc1Cl
2. O=C(NC1CCN(CCc2cccc(F)c2)C1)C12CC3CC(CC(C3)C1)C2 (configuration not stated)
3. CCCCCCCCCCCn1ncnc1NC(=O)Nc1c(C(C)C)cccc1C(C)C
4. C[C@@H]1c2sccc2CN(C)[C@H]1CCNC(=O)c1ccc(NS(C)(=O)=O)cc1 (relative stereo)
5. CCCCCCCCNC(=O)c1ccc(O)c(O)c1
6. CCN(C(=O)Nc1ccccc1)c1cccc(-c2ccc(CC3SC(=O)NC3=O)cc2)c1 (configuration not stated)

168 to 170 °C
87 to 89 °C
146 to 148 °C
67 to 74 °C
118 to 120 °C
186 °C

Required: melting point, one value per compound below.
1. COc1cc(COc2nn(-c3ccccc3)cc2/C=C\c2csc(C)n2)ccc1OCc1nc(-c2ccco2)oc1C
2. CS(=O)(=O)c1ccc(Oc2cc3nc(-c4ccccc4)oc3cc2[N+](=O)[O-])cc1
3. O=C(c1ccccc1)c1ccc(OCCCCCCCCBr)cc1
4. CCCCCCCCCCCCCCCCc1nc(N(C)C)nc(C)c1O
5. CCCCNc1c(N)c(NCC(C)C)nc(C)c1C(=O)OCC

1. 111 to 112 °C
2. 123 to 125 °C
3. 59 to 61 °C
4. 86 to 87 °C
5. 34 to 36 °C

Required: melting point, one value per compound below.
1. CC(=O)c1cc2c(s1)CCC1CC(=O)N(c3ccc(Cl)cc3)N=C21 (configuration not stated)
2. CCCCCCCCCCCC1OC1CO (configuration not stated)

["155 to 157 °C", "68 to 70 °C"]

---

Task for the reader: assign each of the following molecules its reported melting point.

Record excerpt, results attached:
{"molecule": "N#Cc1cccc(C2=NN(C(=O)Nc3ccc(OC(F)(F)F)cc3)CCC2n2cc(Cl)cn2)c1 (stereo not given)", "reading": "216 °C"}
{"molecule": "CCOC(=O)N1CCN(C2=C(Cl)C(=O)c3nsnc3C2=O)CC1", "reading": "152 to 154 °C"}

Required: melting point, one value per molecule below.
1. CN1Cc2c(-c3nc(CN(CC4CC4)CC4CC4)no3)ncn2-c2ccccc2C1=O
2. O=C(Nc1nc(C(F)(F)F)co1)C1c2cc(F)ccc2Oc2ccc(F)cc21
3. CCCCCc1ccc(C2c3c(C)c(N)c(C)c(C)c3OC2(C)C)cc1 (stereo not given)
4. CCOC(=O)c1cnoc1-c1ccc(F)c(F)c1
5. COc1ccc(N2C(=O)N(C(C)CO)c3nc(Nc4ccccc4)ncc3C2C)cc1 (stereo not given)
6. CCNC(=O)c1ccc(N2CCN(Cc3cc(C)c4c(c3)NC(=O)C(C)O4)CC2)c(Cl)c1 (stereo not given)

1: 170 to 174 °C; 2: 259 °C; 3: 67 to 68 °C; 4: 64 to 65 °C; 5: 165 to 180 °C; 6: 227 to 228 °C

---

Task for the reader: assign each of the following compounds its reported melting point.

{"compound": "Fc1cccc(Cn2cnnc2S)c1", "melting point": "124 to 125 °C"}
{"compound": "CCCCCCCCCCCCCCc1ccc(O)c(CC)c1", "melting point": "45.5 to 46.5 °C"}
{"compound": "Brc1ccc(CC2=NCCN2)c2ccccc12", "melting point": "133 to 135 °C"}
{"compound": "Fc1ccccc1-c1nc2cnccc2o1", "melting point": "110 to 111 °C"}
{"compound": "NC(=O)Nc1ccccc1S", "melting point": "151 to 153 °C"}

Shift focus to the following entry.
Quick check: melting point of COC(=O)CCC(CNC(=O)C(C)(Cc1c[nH]c2ccccc12)NC(=O)OC1C2CC3CC(C2)CC1C3)c1ccccc1 (stereo unspecified) ?
69 to 76 °C

---

Task for the reader: assign each of the following compounds its reported melting point.

{"compound": "Cc1ccc(-c2c(C(=O)NCc3ccccc3)n(CC[C@@H](C)CO)c(=O)c3ncccc23)cc1", "melting point": "226 to 227 °C"}
{"compound": "CC(=O)Nc1nc(NCC(O)CO)c(Cl)nc1[N+](=O)[O-] (stereo not given)", "melting point": "130 to 131 °C"}
{"compound": "COCCOC(=O)c1ccc(-c2ccc(N)cc2)c(C)c1", "melting point": "72 to 75 °C"}
{"compound": "Cc1cccc(NC(=O)NC2N=C(c3ccccc3F)c3ccccc3N(Cc3cc4ccccc4o3)C2=O)c1 (racemic)", "melting point": "213 to 214 °C"}
{"compound": "Cn1nc(-c2cccc(C(F)(F)F)c2)c(O)c1C(=O)O", "melting point": "192 to 194 °C"}

Required: melting point, one value per compound below.
1. CCC(C)C(C)C(=O)Nc1ccc2c(C)cn3c(=O)c(C(=O)OCCNC(=O)c4cccnc4)cnc3c2c1 (stereo not given)
2. CN(C)N=Nc1c(Br)csc1C(N)=O
3. N#Cc1c(CNS(=O)(=O)c2c(F)cccc2F)nn(-c2ccc(Cl)cc2Cl)c1-c1ccc(O)cc1
4. CC(C)NC(=O)c1c(NC(=O)c2cc(C(F)(F)F)nn2-c2ncccc2Cl)c(Cl)cc2cn[nH]c12
5. O=C1C(=O)c2ccccc2C2=C1SCC1(CCC(NC(=O)c3cccc(C(F)(F)F)c3)CC1)O2 (stereo not given)
6. CCn1cc(C(=O)O)c2ccc(Cl)cc21
7. CCOC(=O)c1c(-c2ccccc2Cl)c2cc(CC)ccc2[nH]c1=O

204 to 210 °C
194 to 196 °C
196 °C
245 to 247 °C
266 to 267 °C
225 to 227 °C
199 to 200 °C

---

Task for the reader: assign each of the following molecules its reported melting point.

{"molecule": "COC(OC)C1(C)CN=C(c2cc3cccc(N(C)S(=O)(=O)c4cccs4)c3[nH]2)S1 (centres undefined)", "propertyName": "melting point", "reading": "153 to 154 °C"}
{"molecule": "CCCCN(c1nc(N(CC)CC)nc(N(CCCC)C2CC(C)(C)NC(C)(C)C2)n1)C1CC(C)(C)NC(C)(C)C1", "propertyName": "melting point", "reading": "74 to 76 °C"}
{"molecule": "CCN1c2ncc(CCc3ccc(N(C)S(C)(=O)=O)cc3)cc2C(=O)N(C)c2ccc(Cl)nc21", "propertyName": "melting point", "reading": "196 to 198 °C"}

Required: melting point, one value per molecule below.
1. C[C@@H](C(=O)O)N(C)C(=O)c1cc(C(F)(F)F)cc(N)c1N
2. COC(=O)C(CC(C)([N+](=O)[O-])[N+](=O)[O-])C(=O)OC
3. CCNC(=O)c1c(Cl)ccc(N(C)C)c1[Si](C)(C)C
4. CCn1c(C(O)(c2cccc(C(F)(F)F)c2)c2cccc(C(F)(F)F)c2)nc(-c2ccncc2)c1-c1ccc(Cl)cc1
5. CC(=O)OCc1c(Br)cccc1N1Cc2cc(N(C)C)ccc2C1=O
6. Cc1cc(-c2cc(C(F)(F)F)n3ncc(-c4ccncc4)c3n2)ccc1Cl

1: 96 °C; 2: 44 °C; 3: 179 to 180 °C; 4: 193 to 195 °C; 5: 93 to 95 °C; 6: 247 °C

---

Task for the reader: assign each of the following compounds its reported melting point.

{"compound": "CC1C=C2C(=CC=CC23NC(=O)NC3=O)O1 (stereo not given)", "melting point": "234 to 236 °C"}
{"compound": "COC12CC(CN3CCC(c4c[nH]c5ccccc45)CC3)CN(C)C1Cc1c(Br)[nH]c3cccc2c13 (stereo not given)", "melting point": "160 to 170 °C"}
{"compound": "CC(C)(C)c1cc(-c2nn(-c3ccccc3)c3ncccc23)cc(C(C)(C)C)c1O", "melting point": "174 to 175 °C"}

Required: melting point, one value per compound below.
1. COc1cccc2c(Nc3ccccc3C)nc(Nc3ccccc3C)nc12
2. O=CCC1Cc2ccc(Br)cc2C1=O (racemic)
3. Cn1cnc(=O)[nH]c1=O
4. CCN1c2ncc(CO)cc2C(=O)N(C)c2ccc(F)nc21
5. O=C(c1ccccc1)N(c1ccccc1)c1ccc(OCc2ccccc2)cc1
6. CCC(O)C(=O)Nc1c(C)c(C)c2c(c1C)C(c1ccc(C(C)C)cc1)CO2 (stereo not given)

185 to 187 °C
84 °C
213 to 214 °C
40 °C
141 to 143 °C
146 to 147 °C

Quick check: melting point of CCCCCCCCCCCCCCOc1ccc(COC(=O)Oc2ccccc2)cc1 ?
34 to 35 °C
